The following compounds are listed with their measured log10 of IC50 values.
Target: Porcine gastric H+/K+-ATPase (Sus scrofa)
Construct: The gastric vesicles were collected from interface on 0.25 M sucrose layer containing 7% Ficoll
Sequence (P19156 2-1034 limits assumed): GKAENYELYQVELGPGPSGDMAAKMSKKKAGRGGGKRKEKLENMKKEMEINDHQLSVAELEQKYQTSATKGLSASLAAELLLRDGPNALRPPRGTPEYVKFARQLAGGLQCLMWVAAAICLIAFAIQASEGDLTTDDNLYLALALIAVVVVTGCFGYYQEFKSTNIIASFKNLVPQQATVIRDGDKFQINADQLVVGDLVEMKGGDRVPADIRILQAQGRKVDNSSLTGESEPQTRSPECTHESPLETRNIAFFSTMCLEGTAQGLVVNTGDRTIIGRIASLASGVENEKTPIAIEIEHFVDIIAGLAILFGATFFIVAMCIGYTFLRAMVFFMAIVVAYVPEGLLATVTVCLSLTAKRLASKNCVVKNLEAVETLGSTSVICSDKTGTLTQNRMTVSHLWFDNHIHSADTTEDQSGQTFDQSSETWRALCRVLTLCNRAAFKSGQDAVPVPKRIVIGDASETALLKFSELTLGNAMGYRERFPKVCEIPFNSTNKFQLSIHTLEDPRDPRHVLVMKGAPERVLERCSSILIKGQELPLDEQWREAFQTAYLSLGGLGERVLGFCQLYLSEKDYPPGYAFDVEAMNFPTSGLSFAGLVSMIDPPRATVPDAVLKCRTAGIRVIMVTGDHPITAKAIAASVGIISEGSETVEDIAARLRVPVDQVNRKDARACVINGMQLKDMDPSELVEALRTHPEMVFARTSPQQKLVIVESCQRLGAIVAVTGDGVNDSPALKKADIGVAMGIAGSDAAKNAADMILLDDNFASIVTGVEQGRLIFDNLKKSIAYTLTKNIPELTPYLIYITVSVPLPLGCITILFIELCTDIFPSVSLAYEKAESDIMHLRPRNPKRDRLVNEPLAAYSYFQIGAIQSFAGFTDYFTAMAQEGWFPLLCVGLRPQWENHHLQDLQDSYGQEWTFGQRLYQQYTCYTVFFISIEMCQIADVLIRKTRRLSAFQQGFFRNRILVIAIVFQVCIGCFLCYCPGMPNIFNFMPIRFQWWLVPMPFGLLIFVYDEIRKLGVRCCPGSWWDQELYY
Sequence (P18434 whole entry partner): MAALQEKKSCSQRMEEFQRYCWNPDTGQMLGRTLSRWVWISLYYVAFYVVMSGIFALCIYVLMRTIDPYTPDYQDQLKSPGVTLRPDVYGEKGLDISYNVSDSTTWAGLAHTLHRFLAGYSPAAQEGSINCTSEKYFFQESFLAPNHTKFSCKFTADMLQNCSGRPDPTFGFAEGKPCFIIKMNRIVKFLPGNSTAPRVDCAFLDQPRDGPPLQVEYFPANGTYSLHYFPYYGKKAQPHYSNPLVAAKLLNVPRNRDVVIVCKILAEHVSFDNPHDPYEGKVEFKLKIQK
Assay: Ion-leaky porcine gastric H+/K+-ATPase inhibition
Conditions: ion-leaky vesicles, 5 mM KCl, pH 6.4, 37° C., 30 minutes
// stored as log10 of IC50 expressed in nM

compound	log10 of IC50
Cc1nc2c(NC3CCOc4cc(F)cc(F)c43)cc(C(=O)N(C)C)cn2c1C (single isomer, unassigned) [Example 8-2]	1.36

log10 of IC50 measured on Cc1cccc2c1C(Nc1cc(C(=O)N(C)C)cn3c(C)c(C)nc13)CCO2 (single isomer, unassigned) [Example 17-3] = 1.96

Form field log10 of IC50, entry Cc1nc2c(NC3CCOc4cc(F)cc(F)c43)cc(C(=O)N(C)CCO)cn2c1C (racemic) [Example 9-1] : 1.70

GET /value?item= Cc1nc2c(NC3CCOc4ccccc43)cc(C(=O)N(C)CCO)cn2c1C (single isomer, unassigned; (+)) [Example 2-3] &field=log10 of IC50 returns 1.81

// log10 of IC50 lookup, compound = Cc1nc2c(NC3CCOc4cccc(Cl)c43)cc(C(=O)N(C)C)cn2c1C (racemic) [Example 18-1] , result: 2.54

get_value(item= Cc1ccc2c(c1)OCCC2Nc1cc(C(=O)N(C)CCO)cn2c(C)c(C)nc12 (racemic) [Example 16-1] , readout=log10 of IC50) returns 2.52

get_value(item= Cc1nc2c(NC3CCOc4cc(F)ccc43)cc(C(=O)N(C)CCO)cn2c1C (single isomer, unassigned) [Example 7-2] , readout=log10 of IC50) returns 1.31
